Values compiled from PubChem BioAssay.

Test details: reversal of MRP1-mediated doxorubicin resistance, pilot screen, H69AR cells, doxorubicin co-treatment (AID 601)
Test parameters: H69AR cells + 2 uM doxorubicin, CellTiter-Glo, 72 h; at 10 µM; hits give high values
Observed property: differential viability (reversal) (%)
API: value field is a number in %; no unit string.

Some compounds with recorded differential viability (reversal):
Compound	Unit spec	differential viability (reversal)
Cn1ncc2c(Nc3ccccc3Br)ncnc21	%	13.5
CC1(C)OC(=O)N(c2cccnc2)C1(C)O (stereo unspecified)	%	11.6
O=C(CN(c1ccc(F)cc1)S(=O)(=O)c1ccc2c(c1)OCCO2)Nc1cccnc1	%	-0.85
COc1ccc(C/C(O)=C(\C#N)c2nc3ccccc3s2)cc1	%	-8.21
O=C(Nc1nnc(SCC(=O)N2CCCCC2)s1)C1CCCCC1	%	12.6

Here's the next entry for you.
The value of differential viability (reversal) measured for the compound `O=C(CC(CC(=O)c1ccccc1)C(=O)O)c1ccccc1` turned out to be 5.54
